Reference source for all entries: PubChem BioAssay

# testedSystem: Solute carrier family 12 member 5 (Homo sapiens)
# assaySummary: KCC2 modulators in sodium-free buffer, confirmation, cell-based, HEK293 KCC2, thallium flux, secondary assay (AID 1713)
# conditionLabel: FluoZin2 fluorescence, at 10 µM, active compounds read high
This is one part of the list. Records with an inconclusive call do not appear. The source made the active and inactive calls.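 The calls were made as follows: active = thallium flux slope above the same plate's solvent-only control mean plus 3 SD; inconclusive = the two replicate wells disagree; inactive = no significant difference from solvent-only control wells.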
Each entry below carries its reported normalised thallium flux (F/F0 slope).

Example results:
Lookup: // normalised thallium flux (F/F0 slope) lookup, key: COc1ccc(CN2CCCCC2C)cc1OC (configuration not stated)
Found: 0.00901 (inactive)

Lookup: If you can, please state the reported normalised thallium flux (F/F0 slope) value of O=c1[nH]c2ccccc2s1 .
Found: 0.00622 (inactive)

Lookup: Which normalised thallium flux (F/F0 slope) value belongs to O=C(CNCc1cccs1)Nc1cc(S(=O)(=O)N2CCCC2)ccc1Cl ?
Found: 0.00507 (inactive)

Lookup: Any idea what normalised thallium flux (F/F0 slope) was measured for Oc1ccccc1/C=N/n1c(-c2cccs2)n[nH]c1=S ?
Found: 0.02 (active)

Lookup: Which normalised thallium flux (F/F0 slope) value belongs to COc1ccc(-c2cn(-c3ccc(OC)cc3)c(=S)[nH]2)cc1 ?
Found: 0.00623 (inactive)

Lookup: Requested field: normalised thallium flux (F/F0 slope). Item: O=C(Cn1cnc2c(nnn2Cc2ccc(F)cc2)c1=O)NCc1ccc2c(c1)OCO2
Found: 0.0157 (inactive)

Lookup: Looking for the measured normalised thallium flux (F/F0 slope) of S=c1ccc2ccccc2[nH]1 , can you help?
Found: 0.0228 (active)

Lookup: # get_value(readout='normalised thallium flux (F/F0 slope)', item= Cc1cccc(-n2c(SCC(N)=O)nc3c(c2=O)C2(CCCCC2)Cc2ccccc2-3)c1 )
Found: 0.00538 (inactive)

Lookup: Form field: reported normalised thallium flux (F/F0 slope) of Fc1ccc(COc2cccc(-c3n[nH]c(=S)o3)c2)cc1
Found: 0.0171 (inactive)

Lookup: I'd like to know its normalised thallium flux (F/F0 slope). The compound in question is O=C(N/N=C/c1coc2ccccc2c1=O)c1cc2ccccc2o1
Found: 0.0123 (inactive)

***
Lookup: Need normalised thallium flux (F/F0 slope) of COc1cc(NC(=O)c2ccccc2NS(=O)(=O)c2ccc(Cl)s2)cc(OC)c1 , thanks.
Found: 0.00642 (inactive)

Lookup: Consider the compound CCCCn1c(SCC(=O)NCC2CCCO2)nc2ccc(N3CCOCC3)cc2c1=O (configuration not stated) and give its measured normalised thallium flux (F/F0 slope).
Found: 0.0177 (inactive)

----------
# testedSystem: Voltage-gated potassium channel subunit beta-2 (Rattus norvegicus) (UniProt P62483)
# Sequence (P62483 whole entry, looked up): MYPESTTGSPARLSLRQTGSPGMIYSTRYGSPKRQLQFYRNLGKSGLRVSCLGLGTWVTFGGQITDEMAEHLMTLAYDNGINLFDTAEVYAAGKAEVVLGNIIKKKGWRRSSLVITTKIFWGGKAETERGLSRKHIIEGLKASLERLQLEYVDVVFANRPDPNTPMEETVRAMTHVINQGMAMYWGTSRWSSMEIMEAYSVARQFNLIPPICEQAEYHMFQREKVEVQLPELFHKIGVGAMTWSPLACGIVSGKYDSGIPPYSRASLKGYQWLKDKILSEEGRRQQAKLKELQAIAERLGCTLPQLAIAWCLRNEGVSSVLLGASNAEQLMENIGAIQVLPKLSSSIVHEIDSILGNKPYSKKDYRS
# assaySummary: KvBeta enzyme negative modulators, primary screen, biochemical, NADPH fluorescence (AID 622);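 also: slope of raw intensity against log time taken from 70 to 1610 s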
# conditionLabel: recombinant KvBeta, 4-cyanobenzaldehyde reduction, at 10 µM, active compounds read high
Label not satisfied if fluorescence slope falls below -0.5; label satisfied in every other case.

Lookup: Can CC(NC(=O)Nc1nccs1)(C(F)(F)F)C(F)(F)F be said to have fluorescence slope at or above -0.5?
Found: satisfied

Continuing:
Lookup: API: above_or_equal(metric=fluorescence slope, cutoff=-0.5) for item O=C(O)Cc1cc(I)c(Oc2ccc(O)c(I)c2)c(I)c1
Found: not satisfied

Lookup: Is it the case that COCCOCCOCCC(=O)NC1CC2CCC1(C)C2(C)C (stereo not given) has fluorescence slope reaching or exceeding -0.5?
Found: satisfied

Lookup: Decide: fluorescence slope of C[C@]12CCC(=O)C=C1CC[C@@H]1[C@@H]2CC[C@@]2(C)[C@H]1CC[C@]2(O)C(=O)CO >= -0.5?
Found: not satisfied
